System: MS2 coat protein
Experiment: apparent KD of MS2 coat protein, switch OFF state (with FMN for OFF switches, without FMN for ON switches); designed switch direction (-1 OFF switch, 1 ON switch): -1; higher = weaker reporter binding
Settings: FMN input: 0 or 200 uM; Eterna round: R93 (includes R88 designs)
measurement name: apparent KD of MS2 coat protein (nM)

>>> observed_result("AAAAAACAUGAGGAUCACCCAUGUGAGGAUAUACAGAAUGGAAUAAAAUAACAAGAAAGUAGAAGGCACAAAAA [Ex 1 May 38]")
41.6
>>> observed_result("AAAUUGUCAGGAUAUCGUAGAACAGGGAAAACCUGGAGCUACGAGAAGGGACAUGAGGAUCACCCAUGUAAAAC [May 93]")
71.1
>>> observed_result("AAAAAACAUGAGGAUCACCCAUGUCAGGAUAUCUGUAUAAAUAAAAAAAUAAAAAUACAGAGAAGGGACAAAAA [Ex1: 608]")
51.7
